The values you see were collected from PubChem BioAssay AID434987.

- Test system: M. tuberculosis H37Rv growth inhibition with meropenem
- TEST_DESCRIPTION: dose response, H37Rv, with and without meropenem (AID 434987);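 further: growth over 7 days at 37 °C before Alamar Blue read on day 9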
- RUN_PARAMETERS: M. tuberculosis H37Rv growth inhibition; measured here: IC50 without meropenem
READOUT: IC50

Look over these answered cases.
Which measured IC50 value corresponds to CCCCCCC(=O)Nc1nc(C)c(-c2csc(Nc3cc(Cl)ccc3OC)n2)s1 ? 51.1 µM

Record: O=c1oc(-c2cccs2)nc2sc3c(c12)CCC3 > 100 µM

Record: O=C1CS/C(=N/N=C2C3CC4CC(C3)CC2C4)N1 23.5 µM

More entries:
Which measured IC50 value corresponds to CCN(CC)C(=O)CSc1nnc2nnc3cc(OC)ccc3n12 ? 27.7 µM

Record: CC(/C=N/NC(=O)c1cc(-c2cccs2)[nH]n1)=C\c1ccccc1 > 100 µM

Record: Cc1noc(/C=C/Nc2ccc(F)cc2F)c1[N+](=O)[O-] > 100 µM

Record: Cc1ccc(O)c(-c2cc(-c3ccccc3F)[nH]n2)c1 > 100 µM

Record: Cc1ccc(N=Cc2c(O)ccc3ccccc23)cc1F > 100 µM

* * *

- System: M. tuberculosis H37Rv growth inhibition with meropenem
- TEST_DESCRIPTION: dose response, H37Rv, with and without meropenem (AID 434987);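 further: growth over 7 days at 37 °C before Alamar Blue read on day 9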
- RUN_PARAMETERS: measured here: IC90 with meropenem
Measured IC90, listed per entry.

Look over these answered cases.
Which measured IC90 value corresponds to CCOC(=O)c1c(C)nc2sc(C(=O)Nc3ccccc3)c(N)c2c1-c1ccc(OC)cc1 ? > 100 µM

Record: CCOc1ccc(N2C(=O)CC(N)C2=O)cc1 (stereo not drawn) 52.4 µM

Record: O=C1S/C(=C\C=C\c2ccco2)C(=O)N1c1ccccc1 77.6 µM

Record: Cc1cccc(NC(=O)Cn2c(=O)n(Cc3ccccc3)c(=O)c3c(C)c(C)sc32)c1 > 100 µM

Record: NNC(=S)Nc1ccc(C(F)(F)F)cc1Cl > 100 µM

More entries:
Which measured IC90 value corresponds to C/C(=N\OCC(=O)Nc1nc2ccccc2s1)c1ccccc1 ? 35.6 µM

Record: CN(C)c1ccc(N=Nc2cccc3ccoc23)cc1 > 100 µM

Record: Cc1ccc(NC(=O)CSc2n[nH]c(-c3ccco3)n2)cc1 > 100 µM

Record: CCOC(=O)c1c(C)[nH]c(C)c1C(=O)COC(=O)c1ccc(S(=O)(=O)N(CC)CC)cc1 > 100 µM

Record: COc1ccc(-c2csc(Nc3ncccc3C)n2)cc1OC > 100 µM

Record: COc1nc(Nc2nc3ccccc3c(=O)[nH]2)nc2ccc(C)cc12 > 100 µM

Record: Cc1ccc(CN2CCSc3ccc(C(=O)NC4CCN(Cc5ccccc5)CC4)cc32)cc1 > 100 µM

Record: O=C(NCc1ccc2c(c1)OCO2)C(=O)NC1CCCCC1 > 100 µM

Record: CN(c1ccc(C(=O)Nc2ccccc2Sc2ccccc2)cc1)S(C)(=O)=O > 100 µM

Record: COc1ccc2c(c1)c(C(C)=O)c(C)n2-c1ccccc1 6.92 µM

* * *

- System: M. tuberculosis H37Rv growth inhibition with meropenem
- TEST_DESCRIPTION: dose response, H37Rv, with and without meropenem (AID 434987);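 further: growth over 7 days at 37 °C before Alamar Blue read on day 9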
- RUN_PARAMETERS: M. tuberculosis H37Rv growth inhibition; measured here: IC50 without meropenem
pIC50: −log10 of the molar value.
READOUT: pIC50

Which measured pIC50 value corresponds to COc1cc(NC(=O)c2ccccc2F)c(OC)cc1NC(=O)CN1CCOCC1 ? < 4.00

Record: CCOC(=O)c1c(C)n(-c2ccccc2)c2ccc(OCCN(C)C)cc12 4.21

Record: COc1cccc(/C=N/NC(N)=S)c1OS(=O)(=O)c1ccccc1 < 4.00

Record: COC(=O)c1c(NC(=O)c2ccc(C)cc2)csc1C 4.08

Record: CCOc1ccc(-c2nc(-c3ccccc3C)no2)cc1 < 4.00

More entries:
Which measured pIC50 value corresponds to O=C(C1=C[C@H](c2ccc(Br)cc2)C[C@H](OCCCCO)O1)N1CCN(Cc2ccc3c(c2)OCO3)CC1 ? 4.19

Record: CCC(=O)N1CCN(c2ccc(NC(=S)NC(=O)c3ccc(OC)c([N+](=O)[O-])c3)cc2)CC1 4.10

Record: Cc1cccc(CSc2nnc(C)c(=O)n2N)c1 4.91

Record: COc1ccccc1-c1cc(C(=O)Nc2c(C)n(C)n(-c3ccccc3)c2=O)no1 4.41

Record: Cc1cccc(OCc2nc(-c3ccccn3)n[nH]2)c1 4.65

Record: Cc1cccc(NC(=O)Cn2cnc3c(oc4ccccc43)c2=O)c1C < 4.00

Record: CCOC(=O)C1=C(C)N=c2s/c(=C\c3ccncc3)c(=O)n2C1c1ccc2c(c1)OCO2 (stereo not given) 4.02

Record: O=C(Nc1nc2ccccc2[nH]1)c1ccccc1F < 4.00

Record: CCSc1nnc(NC(=O)CSc2nccn2-c2cccc(C)c2)s1 < 4.00

Record: C=CCOc1ccc(C2N3CC4(C)CN2CC(CCC)(C3)C4=O)cc1 (stereo not given) < 4.00
